Provenance of the data: patent US7820669B2

Target: PDE4B2 (Homo sapiens)
Construct: made in house; host or cells: SF21 insect cells (baculovirus generated in SF9 cells, pCR-Bac vector)
Sequence (Q07343 1-564 isoform Q07343-2): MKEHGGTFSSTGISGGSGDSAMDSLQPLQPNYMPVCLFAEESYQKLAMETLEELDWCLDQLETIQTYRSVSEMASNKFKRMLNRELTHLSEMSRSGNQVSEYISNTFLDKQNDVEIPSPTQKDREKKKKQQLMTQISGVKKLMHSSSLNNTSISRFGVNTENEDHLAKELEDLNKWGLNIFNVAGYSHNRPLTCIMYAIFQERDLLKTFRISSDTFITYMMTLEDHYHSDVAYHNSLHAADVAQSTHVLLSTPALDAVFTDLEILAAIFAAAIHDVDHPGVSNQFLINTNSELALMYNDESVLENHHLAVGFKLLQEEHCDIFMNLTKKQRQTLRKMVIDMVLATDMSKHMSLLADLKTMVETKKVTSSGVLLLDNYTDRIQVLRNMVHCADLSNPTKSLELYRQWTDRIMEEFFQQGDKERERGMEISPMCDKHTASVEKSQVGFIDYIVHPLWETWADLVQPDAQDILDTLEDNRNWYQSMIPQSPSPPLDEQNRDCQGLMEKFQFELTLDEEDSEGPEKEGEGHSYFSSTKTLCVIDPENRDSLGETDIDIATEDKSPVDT
Assay: Inhibition of PDE4B2 activity, modified [3H]cAMP SPA (scintillation proximity assay) test
Assay type: biochemical
Conditions: recombinant PDE4B2 expressed in SF21 insect cells; 0.5 μM cAMP; 15 min at 37° C.; read-out: PDE4 Inhibition [measured as -logIC50 (mol/l)] (converted)
measure: IC50 (pM)
Lab book: enter the figure in pM, no units written.

Which IC50 is listed for CCC1(CC)CC(c2ccc(OC)c(OC)c2)=NN(C2CCN(S(=O)(=O)c3ccccc3C#N)CC2)C1=O [Compound 16] ? 355

Which IC50 is listed for CCC1(CC)CC(c2ccc(OC)c(OC)c2)=NN(C2CCN(CC(N)=O)CC2)C1=O.Cl [Compound 15, Hydrochloride] ? 6170

Which IC50 is listed for COc1ccc(C2=NN(C3CCN(S(=O)(=O)c4ccccc4C)CC3)C(=O)C(C)(C)C2)cc1OC [Compound 5] ? 741

Which IC50 is listed for COc1ccc(C2=NN(C3CCN(C(=O)c4ccccc4OC)CC3)C(=O)C(C)(C)C2)cc1OC [Compound 8] ? 209
